- Target Entity: T1, recombinant human wild type EGFR protein (extracellular domain), native (human, UniProt P00533 25-645)
- T1 construct: also called wt EGFR; EGFR WT
- Assay Name: ELISA Exp 2, purified mAb 1 ug/ml;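 further: ELISA of purified mAb binding to plate-coated antigen, native or heat/DTT-denatured, with pNPP substrate developed for 30 min and incubations at room temperature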
Readout Type: ELISA absorbance 405 nm (A405)

{"Binder": "F266-11C8 (antibody, V domains shown, Mouse hybridoma mAb; also called 11H5 (11C8)) VH: QIQLVQSGPELKKPGETVKISCKASGYTFTTAGMQWVQKMPGKGFKWIGWINTHSGDPKYAEDFKGRFAFSLETYASTAYLQISNLKNEDTASYFCARTHIYDGYNYAMDYWGQGTSVTVSS VL: DVVMTQTPLSLPVSLGDQASISCRSSQSLVYSNGNTYLHWYLQKPGQSPKLLIYKVSNRFSGVPDRFSGSGSGTDFTLKISRVEAEDLGVYFCSQSTHVPFTFGSGTKLEIK", "Unit Abbrev": "A405", "Endpoint Result": 0}
{"Binder": "F263-5D8 (antibody, V domains shown, Mouse hybridoma mAb) VH: EVQLQQSGPDLVKPGSSVKISCKASGYTFTDYNIDWVKQSHGKSLEWIGTINPNYGGTSYNQKFKGKATLTVDKSSSTAYMELRSLTSEDSAVYYCARGYDYDLWFAYWGQGTLVTVSA VL: EIVLTQSPVFMAASPGEKVTITCSVSSSISSSNLHWYQQKSETSPKPWIYGTSNLASGVPVRFSGSGSGTSYSLTISSMEAEDAATYYCQQWSSYPLTFGAGTKLELK", "Unit Abbrev": "A405", "Endpoint Result": 0.159}
{"Binder": "F263-4B3 (antibody, V domains shown, Mouse hybridoma mAb) VH: EVQLQQSGPELVKPGSSVKISCKASGYTFTDYNMDWVKQSHGKSLEWIGTINPNNGGTSYNQKFKGKATLTVDKSSNTAYMELRSLTSEDSAVYYCARGYDYDLWFAYWGQGTLVTVSA VL: EIVLTQSPALMAASPGEKVTITCSVSSSISSSNLHWYQQKSETSPKPWIYGTSNLASGVPVRFSGSGSGTSYSLTISSMEAEDAATYYCQQWSSYPLTFGAGTKLELE", "Unit Abbrev": "A405", "Endpoint Result": 0.066}
{"Binder": "F266-11H3 (antibody, V domains shown, Mouse hybridoma mAb) VH: QIQLVQSGPELKKPGETVKISCKASGYTFTTAGMQWVQKMPGKGFKWIGWINTHSGDPKYAEDFKGRFAFSLETYASTAYLQISNLKNEDTATYFCARTHIYDGYNYAMDYWGQGTSVTVSS VL: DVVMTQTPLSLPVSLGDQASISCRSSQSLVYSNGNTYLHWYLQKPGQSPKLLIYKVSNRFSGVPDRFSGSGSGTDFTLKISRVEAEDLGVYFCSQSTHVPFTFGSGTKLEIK", "Unit Abbrev": "A405", "Endpoint Result": 0.001}
